This collection of values is drawn from patent US20200399238A1.

- Test system: T. rubrum
- PROTOCOL TEXT: Antifungal microdilution broth assay, T. rubrum
- Type: cell-based
- MEASUREMENT SETUP: Trichophyton rubrum; Table 5
ENDPOINT LABEL: pIC50
Answers are plain numbers, as −log10 of the molar value.

Exam item: What reported pIC50 corresponds to COc1ccc(/C=C2\Oc3c(ccc(O)c3O)C2=O)cc1O [Aurone 1009] on T. rubrum?
Marked response: 4.31

----------
- System: S. cerevisiae
- PROTOCOL TEXT: Antifungal microdilution broth assay, S. cerevisiae
- Assay type: cell-based
- MEASUREMENT SETUP: Saccharomyces cerevisiae; Table 5
ENDPOINT LABEL: pIC50
Numbers only, as −log10 of the molar value.

Exam item: What reported pIC50 corresponds to COc1ccc(/C=C2\Oc3c(ccc(O)c3O)C2=O)cc1O [Aurone 1009] on S. cerevisiae?
Marked response: 4.59

----------
- System: Leishmania amazonensis promastigotes expressing beta-lactamase
- PROTOCOL TEXT: microbe, parasite or virus in culture
- Type: cell-based
- MEASUREMENT SETUP: Leishmania amazonensis, read-out: IC50 L. amaz.
ENDPOINT LABEL: pIC50
Answers are plain numbers, as −log10 of the molar value.

Worked examples follow.
Exam item: Which measured pIC50 value corresponds to O=C1/C(=C/c2ccc(Br)cc2)Oc2c1ccc(O)c2O [Aurone 1005] ?
Marked response: 4.51

Exam item: Please answer likewise for O=C1/C(=C/c2ccccn2)Oc2ccccc21 [Aurone 9051]
Marked response: 5.20

Exam item: Please answer likewise for O=C1/C(=C/c2ccc(Br)cc2)Oc2ccccc21 [Aurone 2009]
Marked response: 4.99

Further cases:
Exam item: Which measured pIC50 value corresponds to O=C1/C(=C/C=C/c2ccccc2)Oc2ccccc21 [Aurone 2013] ?
Marked response: 5.52

----------
- Tested on: Leishmania amazonensis promastigotes expressing beta-lactamase
- PROTOCOL TEXT: microbe, parasite or virus in culture
- Format: cell-based
- MEASUREMENT SETUP: Leishmania amazonensis, read-out: IC50 L. amaz.
ENDPOINT LABEL: pIC50
Numbers only, as −log10 of the molar value.

Hello, I would appreciate it if you could give pIC50 for each entry below.
1. COc1ccc2c(c1)O/C(=C\c1ccc(C)cc1)C2=O
2. O=C1/C(=C/c2ccc(C(F)(F)F)cc2)Oc2ccccc21
3. O=C1/C(=C/c2cccc(C(F)(F)F)c2)Oc2ccccc21

Marked response:
1. 4.98
2. 5.53
3. 5.35

Hello, I would appreciate it if you could give pIC50 for each entry below.
1. COc1cccc(/C=C2\Oc3ccc(C)cc3C2=O)c1O
2. O=C1/C(=C/c2ccc(Br)s2)Oc2ccccc21

Marked response:
1. 4.87
2. 5.56

----------
- System: rat skeletal muscle cell line, L6
- PROTOCOL TEXT: cells
- Assay type: cell-based
- MEASUREMENT SETUP: Rattus norvegicus; Table 1; read-out: IC50 Toxicity (L6)
Kindly state IC50 for each of the entries shown.

Exam item: Which measured IC50 value corresponds to O=C1/C(=C/c2ccsc2)Oc2ccccc21 ?
Marked response: > 100 µM

Exam item: Please answer likewise for O=C1/C(=C/c2cccs2)Oc2c1ccc(O)c2O
Marked response: 50.6 µM

Exam item: Please answer likewise for COc1ccc(/C=C2\Oc3ccc(C)cc3C2=O)c(OC)c1OC
Marked response: 43.9 µM

Hello, I would appreciate it if you could give IC50 for each entry below.
1. O=C1/C(=C/c2sccc2Br)Oc2ccccc21
2. O=C1/C(=C/c2cnc[nH]2)Oc2ccccc21
3. O=C1/C(=C/c2ccc(C(F)(F)F)cc2)Oc2ccccc21
4. Cc1ccccc1/C=C1\Oc2ccccc2C1=O
5. O=C1/C(=C/c2cc(Br)cs2)Oc2ccccc21

Marked response:
1: > 100 µM; 2: > 100 µM; 3: > 400 µM; 4: 99.6 µM; 5: > 100 µM

----------
- System: Leishmania amazonensis promastigotes expressing beta-lactamase
- PROTOCOL TEXT: microbe, parasite or virus in culture
- Type: cell-based
- MEASUREMENT SETUP: Leishmania amazonensis, read-out: IC50 L. amaz.
ENDPOINT LABEL: IC50 (µM)
One number for each entry, in µM.

Worked examples follow.
Exam item: Which measured IC50 value corresponds to O=C1/C(=C/c2ccc(-c3ccccc3)cc2)Oc2ccccc21 ?
Marked response: 7.22

Exam item: Please answer likewise for CC(C)c1ccc(/C=C2\Oc3ccccc3C2=O)cc1
Marked response: 2.88

Exam item: Please answer likewise for O=C1/C(=C/c2cc(Br)cs2)Oc2ccccc21
Marked response: 1.7

Exam item: Please answer likewise for O=C1/C(=C/c2ccccc2O)Oc2ccccc21
Marked response: 9.54

Exam item: Please answer likewise for N#Cc1ccccc1/C=C1\Oc2ccccc2C1=O
Marked response: 17.6

Hello, I would appreciate it if you could give IC50 for each entry below.
1. COc1ccc(/C=C2\Oc3c(ccc(O)c3O)C2=O)cc1O
2. COc1cc(OC)c2c(c1)O/C(=C\c1cccc([N+](=O)[O-])c1)C2=O
3. O=C1/C(=C/c2cccc(I)c2)Oc2ccccc21
4. Cc1ccc2c(c1)C(=O)/C(=C/c1ccc(C#N)cc1)O2
5. O=C1/C(=C/c2ccccc2Cl)Nc2ccccc21
6. O=C1/C(=C/c2ccc(Br)cc2)Oc2ccc(Br)cc21

Marked response:
1. 9.63
2. 22
3. 2.61
4. 38.4
5. 1.86
6. 11

Hello, I would appreciate it if you could give IC50 for each entry below.
1. O=C1/C(=C/c2ccccc2C(F)(F)F)Oc2ccccc21
2. COc1ccc2c(c1)O/C(=C\c1cccs1)C2=O

Marked response:
1. 1.9
2. 21.1

----------
- Test system: rat skeletal muscle cell line, L6
- PROTOCOL TEXT: cells
- Type: cell-based
- MEASUREMENT SETUP: Rattus norvegicus; Table 1; read-out: IC50 Toxicity (L6)
- Procedure: Cells were maintained in high glucose DMEM obtained from HyClone Laboratories (Logan, Utah) and supplemented with FCS and P/S at the same concentrations used for parasite culture. Cells were passaged every 3-4 days and maintained in a 37° C. humidified incubator in an atmosphere of 5% CO2. For assays. cells were detached, counted using a hemocytometer, and adjusted using fresh media to deliver 5×10^3 cells per well (90 μL) in black walled, flat clear bottom 96-well microtiter plates. […]
Kindly state IC50 for each of the entries shown.

Exam item: Which measured IC50 value corresponds to COc1ccc(/C=C2\Oc3cc(O)ccc3C2=O)cc1 ?
Marked response: > 100 µM

Exam item: Please answer likewise for COc1cc(/C=C2\Oc3ccccc3C2=O)ccc1O
Marked response: > 200 µM

Exam item: Please answer likewise for O=C1/C(=C/c2ccc(Br)cc2)Oc2cc(O)ccc21
Marked response: > 100 µM

Exam item: Please answer likewise for COc1ccc2c(c1)O/C(=C\c1ccc(C)cc1)C2=O
Marked response: 183 µM

Exam item: Please answer likewise for COc1ccc(/C=C2\Oc3c(ccc(O)c3O)C2=O)cc1O
Marked response: 45 µM

Hello, I would appreciate it if you could give IC50 for each entry below.
1. COc1cc(Br)c(/C=C2\Oc3ccccc3C2=O)cc1OC
2. COC(=O)c1ccc(/C=C2\Oc3ccccc3C2=O)cc1
3. O=C1/C(=C/c2ccco2)Oc2ccccc21
4. O=C1/C(=C/c2ccc[nH]2)Nc2ccccc21
5. Cc1ccc2c(c1)C(=O)/C(=C/c1ccc(C#N)cc1)O2

Marked response:
1. > 100 µM
2. > 100 µM
3. > 100 µM
4. 39.7 µM
5. 76.2 µM

Hello, I would appreciate it if you could give IC50 for each entry below.
1. COc1ccc2c(c1)O/C(=C\c1ccc(C#N)cc1)C2=O
2. O=C1/C(=C/c2ccccc2I)Oc2ccccc21
3. Cc1ccc2c(c1)C(=O)/C(=C/c1ccc(O)cc1)O2
4. O=C1/C(=C/c2ccc([N+](=O)[O-])cc2)Oc2ccccc21
5. O=C1/C(=C/c2ccc(Br)cc2)Oc2ccc(Br)cc21
6. O=C1/C(=C/c2cccc(I)c2)Oc2ccccc21

Marked response:
213 µM
> 100 µM
> 100 µM
249 µM
> 100 µM
> 100 µM

----------
Kindly state melting point for each of the entries shown.

Hello, I would appreciate it if you could give melting point for each entry below.
1. O=C1/C(=C/c2cccc(C(F)(F)F)c2)Oc2ccccc21
2. O=C1/C(=C/c2ccccc2O)Oc2ccccc21
3. Cc1ccccc1/C=C1\Oc2ccccc2C1=O

Marked response:
128 to 133 °C
215 to 216 °C
89 to 93 °C

Hello, I would appreciate it if you could give melting point for each entry below.
1. O=C1/C(=C/c2ccc(Br)s2)Oc2ccccc21
2. COc1ccc2c(c1)O/C(=C\c1cccs1)C2=O
3. O=C1/C(=C/c2ccc(Br)cn2)Oc2ccccc21
4. O=C1/C(=C/c2ccccc2I)Oc2ccccc21

Marked response:
1. 155 to 158 °C
2. 99 to 103 °C
3. 192 to 193 °C
4. 145 to 148 °C

Hello, I would appreciate it if you could give melting point for each entry below.
1. N#Cc1ccc(/C=C2\Oc3cc(O)ccc3C2=O)cc1
2. COc1ccc2c(c1)O/C(=C\c1ccc(C)cc1)C2=O

Marked response:
1. 112 to 115 °C
2. 115 to 122 °C

Hello, I would appreciate it if you could give melting point for each entry below.
1. O=C1/C(=C/c2cccs2)Oc2cc(O)ccc21
2. COc1cccc(/C=C2\Oc3ccc(C)cc3C2=O)c1O

Marked response:
1. 300 to 303 °C
2. 134 to 137 °C

Hello, I would appreciate it if you could give melting point for each entry below.
1. O=C1/C(=C/c2ccccc2C(F)(F)F)Oc2ccccc21
2. O=C1/C(=C/c2cccc(I)c2)Oc2ccccc21
3. Cc1ccc(/C=C2\Oc3cc(O)ccc3C2=O)cc1
4. O=C1/C(=C/c2sccc2Br)Oc2ccccc21
5. O=C1/C(=C/c2cc(Br)cs2)Oc2ccccc21

Marked response:
118 to 123 °C
99 to 105 °C
258 to 264 °C
176 to 180 °C
125 to 129 °C

Exam item: Which measured melting point value corresponds to Cc1ccc2c(c1)C(=O)/C(=C/c1ccccc1C(F)(F)F)O2 ?
Marked response: 121 to 124 °C
